The entries below come with measured 3' UTR reporter interaction score values attached.
- System: EZH2
- Run description: 3' UTR reporter interaction score (median-centred robust z-score of log2 firefly/Renilla activity); higher = less repression of the 3' UTR reporter
- Reported conditions: HEK293T; 48 h
Could you keep your reply to the number by itself?

# example entries with known answers
> print(dat)
             sequence.input  endpoint.value
1  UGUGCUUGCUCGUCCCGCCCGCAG          -0.199
2    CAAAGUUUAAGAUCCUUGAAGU            0.55

Input: Provide 3' UTR reporter interaction score value for the following sequence: `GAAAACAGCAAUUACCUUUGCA`
Output: 0.37

Input: Look up 3' UTR reporter interaction score of `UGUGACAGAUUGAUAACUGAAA` and report it.
Output: 0.213

Input: Read the entry `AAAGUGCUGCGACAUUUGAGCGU` and write its reported 3' UTR reporter interaction score.
Output: -1.36

Input: Annotate the sequence `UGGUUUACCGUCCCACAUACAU` with its measured 3' UTR reporter interaction score.
Output: 0.684

Input: Give a short answer stating reported 3' UTR reporter interaction score for `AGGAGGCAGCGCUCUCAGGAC` .
Output: -1.61

Input: Please list 3' UTR reporter interaction score recorded for the sequence `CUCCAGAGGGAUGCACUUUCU`
Output: 0.363

Input: Identify the reported 3' UTR reporter interaction score for the following entry. `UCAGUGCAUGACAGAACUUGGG`
Output: 0.0466

Input: Consider the sequence `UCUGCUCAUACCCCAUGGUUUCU` and give its recorded 3' UTR reporter interaction score.
Output: 0.623

Input: Answer with the recorded 3' UTR reporter interaction score of `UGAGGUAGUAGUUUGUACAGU` only.
Output: -4.15

Input: Answer with the recorded 3' UTR reporter interaction score for the sequence listed here: `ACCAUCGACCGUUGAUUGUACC`
Output: 0.789

Input: Let me know recorded 3' UTR reporter interaction score for `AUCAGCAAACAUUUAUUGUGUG` , thanks.
Output: -1.04

Input: For `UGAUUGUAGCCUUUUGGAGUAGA` , write its 3' UTR reporter interaction score.
Output: 0.191

Input: For `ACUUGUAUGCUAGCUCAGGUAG` , write its 3' UTR reporter interaction score.
Output: 0.301

Input: For the sequence `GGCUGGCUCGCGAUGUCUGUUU` , give its measured 3' UTR reporter interaction score value.
Output: -0.172

Input: Determine its reported 3' UTR reporter interaction score: `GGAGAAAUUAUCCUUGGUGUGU`
Output: -0.15

Input: Please report the measured 3' UTR reporter interaction score for `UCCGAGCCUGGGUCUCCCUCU`
Output: 0.213

Input: Please report 3' UTR reporter interaction score for the following sequence: `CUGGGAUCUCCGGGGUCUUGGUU`
Output: -0.155

Input: Using the record for `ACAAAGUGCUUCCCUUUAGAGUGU` , state its measured 3' UTR reporter interaction score.
Output: -0.507

Input: Given the sequence `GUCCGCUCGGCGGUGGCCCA` , write its reported 3' UTR reporter interaction score.
Output: 0.465

Input: Input `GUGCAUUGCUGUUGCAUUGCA` , output reported 3' UTR reporter interaction score.
Output: 0.0384

Input: Quickly give me recorded 3' UTR reporter interaction score for `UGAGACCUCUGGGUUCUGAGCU`
Output: 1.01

Hey, just so you know, these numbers are from the supplement of paper PMC5844555.
